Known protein stability index of a selection of variants
B1: DYRK1B (parent)
chain: RFQDLVLRMLEYEPAARISPLGAL

- Variants of: B1
- Protocol Summary: protein stability index of a GFP-peptide fusion (GPS, HEK-293T) (PSI 1-6); higher = more stable;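 note: lentivirally expressed fusions sorted by FACS into six bins by GFP to DsRed ratio, PSI derived from sequencing read proportions per bin multiplied by bin number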
- Test Settings: c terminus: a fixed tail appended
Readout: protein stability index

- L5V: 2.42
- R8M: 3.14
- I18A: 1.41
- R17D: 1.91
- L5N: 2.28
- I18P: 1.98
- E11R: 2.66
- E13Y: 3.29
- L5D: 2.71
- L10I: 1.96
- L10M: 2.05
- P14N: 1.45
- G22E: 3.2
- E13Q: 3.79
- I18Q: 2.04
- M9H: 2.78
- F2M: 3.25
- F2D: 2.38
- E13W: 3.37
- M9R: 1.86
- A15H: 5.14
- Y12N: 1.65
- V6T: 2.07
- L10T: 2.19
- G22A: 2.95
- F2C: 2.36
- Q3V: 4.49
- R17T: 1
- L5K: 1.91
- Y12P: 2
- R17C: 2.25
- L24P: 1.6
- L24A: 2.93
- L21A: 1.75
- I18E: 2.06
- G22I: 2.49
- E11M: 3.73
- A16T: 2.28
- A15Y: 2.03
- A16P: 1.44
- L10E: 1.27
- L5C: 3.97
- I18N: 1.23
- I18D: 1.65
- L24G: 1.35
- S19E: 3.96
